A collection of molecules and their measured Percent Control
System: ERN1;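 also: KINOMEscan scanMAX binding as percent activity remaining versus control; lower means stronger binding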
experimental context: Compound Concentration (nM):1000
Output spec: scalar in %, unitless text.

The following molecules have reported results that may help.
molecule | measurement target | Percent Control / %
C/C(Nc1ccc(S(N)(=O)=O)cc1)=C1/C(=O)Nc2ccccc21 [GW335962X] | ERN1 | 88
Cl.O=C(O[C@H]1CN[C@H](C#Cc2cc3ncnc(Nc4ccc5c(cnn5Cc5ccccc5)c4)c3s2)C1)N1CCOCC1 [GSK200398A] | ERN1 | 88

INPUT: Answer briefly: Percent Control recorded on ERN1 for CCc1ccc(Oc2nccc(-c3c(-c4ccc(F)cc4)ncn3C3CCNCC3)n2)cc1
OUTPUT: 75

Data origin: paper PMC7826789
